Quick record of pKi values for Adenosine receptor A2a (Homo sapiens, UniProt P29274).
pKi: −log10 of the molar value.
property.name: pKi

I. Cc1cc2[nH]c3cccnc3c2c(C)c1O
II. Cc1cc2c(c(C)c1O)c1ncccc1n2C
III. Cc1cc2c(c(C)c1O)c1ccncc1n2C
// rank the listed compounds by pKi, lowest value first Form entry: ranked labels (order as requested).
III, II, I

###

Recorded Ki values for a group of compounds are listed next.
- target.system: Adenosine receptor A1 (Homo sapiens, UniProt P30542)
- Sequence (P30542 whole entry): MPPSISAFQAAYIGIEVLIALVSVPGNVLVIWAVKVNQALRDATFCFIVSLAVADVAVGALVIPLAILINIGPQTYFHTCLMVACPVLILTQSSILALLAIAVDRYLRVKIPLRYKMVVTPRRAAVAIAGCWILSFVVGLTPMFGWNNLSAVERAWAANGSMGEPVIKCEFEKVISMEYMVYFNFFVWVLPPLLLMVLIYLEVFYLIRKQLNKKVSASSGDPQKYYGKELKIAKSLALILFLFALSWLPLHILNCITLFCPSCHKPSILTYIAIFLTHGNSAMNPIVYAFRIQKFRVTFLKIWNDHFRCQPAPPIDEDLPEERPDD
- test.summary: Displacement of [3H]DPCPX from human recombinant adenosine A1 receptor expressed in HEK293T cells

Record excerpt, results attached:
[[record]]
smiles_notation = "Cc1cc2c(c(C)c1O)c1cc[n+](C)cc1n2C"
measured_value = "> 100 µM"

[[record]]
smiles_notation = "Cc1cc2c(c(C)c1O)c1ncccc1n2C"
measured_value = "> 100 µM"

[[record]]
smiles_notation = "Cc1cc2[nH]c3c[n+](C)ccc3c2c(C)c1O"
measured_value = "> 100 µM"

[[record]]
smiles_notation = "Cc1cc2c(c(C)c1O)c1ccncc1n2C"
measured_value = "> 100 µM"

[[record]]
smiles_notation = "Cc1cc2[nH]c3cnccc3c2c(C)c1O"
measured_value = "> 100 µM"


Okay, now this compound:
Return reported Ki; argument: Cc1cc2[nH]c3cccnc3c2c(C)c1O
> 100 µM

###

- target.system: Adenosine receptor A3 (Homo sapiens)
- Sequence (P0DMS8 whole entry): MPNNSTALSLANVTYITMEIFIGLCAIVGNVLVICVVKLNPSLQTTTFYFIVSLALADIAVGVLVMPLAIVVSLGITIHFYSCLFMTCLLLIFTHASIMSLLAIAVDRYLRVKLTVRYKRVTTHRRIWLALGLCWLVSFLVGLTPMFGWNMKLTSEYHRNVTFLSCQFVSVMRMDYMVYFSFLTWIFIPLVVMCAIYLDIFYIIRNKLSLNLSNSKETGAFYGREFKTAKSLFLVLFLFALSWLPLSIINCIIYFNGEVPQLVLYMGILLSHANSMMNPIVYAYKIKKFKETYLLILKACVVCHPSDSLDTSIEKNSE
- test.summary: Displacement of [3H]NECA from human recombinant adenosine A3 receptor expressed in HEK293T cells
pKi: −log10 of the molar value.
property.name: pKi

[[record]]
smiles_notation = "Cc1cc2c(c(C)c1O)c1ccncc1n2C"
measured_value = 4.36

[[record]]
smiles_notation = "Cc1cc2[nH]c3cnccc3c2c(C)c1O"
measured_value = 4.75


A. Cc1cc2[nH]c3cccnc3c2c(C)c1O
B. Cc1cc2c(c(C)c1O)c1ncccc1n2C
C. Cc1cc2[nH]c3c[n+](C)ccc3c2c(C)c1O
rank_up(items): orders items by reported pKi in ascending numerical order. Form entry: ranked labels (order as requested).
C, B, A
